System: NCI-H1581 (Non-Small Cell Lung Carcinoma)
Assay: combination Emax (second highest fraction inhibited in the dose matrix, 72 h); higher = more inhibition; extreme values may be limits of the assay
Label Criterion met when combination Emax >= 0.1; otherwise Criterion not met.

compound: C[C@@H]1COCCN1c1cc(C2([S@](C)(=N)=O)CC2)nc(-c2ccnc3[nH]ccc23)n1 [AZD6738] + Nc1ccn([C@@H]2O[C@H](CO)[C@@H](O)C2(F)F)c(=O)n1 [Gemcitabine] (first compound max 10 µM, 7x7, partner max 0.3 µM)
assay_target: NCI-H1581 (Non-Small Cell Lung Carcinoma)
group: Criterion met
--
compound: CC1(C)CCC(CN2CCN(c3ccc(C(=O)NS(=O)(=O)c4ccc(NCC5CCOCC5)c([N+](=O)[O-])c4)c(Oc4cnc5[nH]ccc5c4)c3)CC2)=C(c2ccc(Cl)cc2)C1 [Venetoclax] + COc1cc(Nc2ncc3c(n2)-c2ccc(Cl)cc2C(c2c(F)cccc2OC)=NC3)ccc1C(=O)O [Alisertib] (first compound max 1 µM, 7x7, partner max 10 µM)
assay_target: NCI-H1581 (Non-Small Cell Lung Carcinoma)
group: Criterion met
--
compound: Cc1nc(-c2cn3c(n2)-c2ccc(-c4cnn(C(C)(C)C(N)=O)c4)cc2OCC3)n(C(C)C)n1 [Taselisib] + O=C(Nc1ccc2[nH]nc(-c3ccncc3)c2c1)[C@@H]1CCN(CC(=O)N2CCN(c3ccc(-c4ncccn4)cc3)CC2)C1 [SCH772984] (first compound max 10 µM, 7x7, partner max 5 µM)
assay_target: NCI-H1581 (Non-Small Cell Lung Carcinoma)
group: Criterion met
--
compound: CN(CCO)CC[C@H](CSc1ccccc1)Nc1ccc(S(=O)(=O)NC(=O)c2ccc(N3CCC([C@@H](O)c4ccccc4-c4ccc(Cl)cc4)CC3)cc2)cc1S(=O)(=O)C(F)(F)F [AZD4320] + Nc1ccn([C@@H]2O[C@H](CO)[C@@H](O)C2(F)F)c(=O)n1 [Gemcitabine] (first compound max 1 µM, 7x7, partner max 0.3 µM)
assay_target: NCI-H1581 (Non-Small Cell Lung Carcinoma)
group: Criterion met
--
compound: CC1(C)CCC(CN2CCN(c3ccc(C(=O)NS(=O)(=O)c4ccc(NCC5CCOCC5)c([N+](=O)[O-])c4)c(Oc4cnc5[nH]ccc5c4)c3)CC2)=C(c2ccc(Cl)cc2)C1 [Venetoclax] + C1CN(CCC1(C(=O)N[C@@H](CCO)C2=CC=C(C=C2)Cl)N)C3=NC=NC4=C3C=CN4 [Capivasertib] (first compound max 1 µM, 7x7, partner max 3 µM)
assay_target: NCI-H1581 (Non-Small Cell Lung Carcinoma)
group: Criterion not met
